Attribution: PubChem BioAssay AID2060512

test system: 186277-243-T-J2-PDC complex spheroid viability; assay: Anticancer human tumor 186277-243-T-J2-PDC patient-derived colon adenocarcinoma cell line growth inhibition [GQUAD]; conditions: curve of first compound; second compound 0.1 µM;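 also: spheroids exposed to drugs for 7 days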
pIC50: −log10 of the molar value.
reportedEndpoint: pIC50

compound | pIC50
CC1COCCN1c1cc(-c2ccnn2C)c2ccnc(-c3ccn[nH]3)c2n1 (stereo not drawn) + Cc1cnc(CNC(=O)c2c(=O)c3ccc(N4CCCN(C)CC4)nc3n3c2sc2ccccc23)cn1 | > 7.50
Nc1ccn(C2OC(CO)C(O)C2(F)F)c(=O)n1 (stereo not drawn) + Cc1cnc(CNC(=O)c2c(=O)c3ccc(N4CCCN(C)CC4)nc3n3c2sc2ccccc23)cn1 | > 7.50

Which pIC50 is reported for this compound? CC(=O)O[C@H]1C(=O)[C@@]2(C)[C@H]([C@H](OC(=O)c3ccccc3)[C@]3(O)C[C@H](OC(=O)[C@H](O)[C@@H](NC(=O)c4ccccc4)c4ccccc4)C(C)=C1C3(C)C)[C@]1(OC(C)=O)CO[C@@H]1C[C@@H]2O + Cc1[nH]c2ccc(F)cc2c1-c1nc2c3cccnc3c3ncccc3c2[nH]1
> 7.50
